// values below are reported Molecular weight (×10^4), irradiation time 50 h
test: Photostability test in glass vials not shielded from light: gelation, molecular weight, percent conjugation of MTX (Example 4(2)); type: physicochemical; conditions: additive 1 mg/ml; 4000 Lux, 25° C., not shielded from light
measured_quantity: Molecular weight (×10^4), irradiation time 50 h

1) N[C@@H](Cc1c[nH]c2ccccc12)C(=O)O    138 ×10^4
2) COC(=O)c1ccc(O)cc1 [Methyl paraben, methyl p-hydroxybenzoate]    127 ×10^4
3) CC(=O)N[C@@H](Cc1c[nH]c2ccccc12)C(=O)O    166 ×10^4
4) O=C([O-])CS.[Na+] [Na thioglycolate, sodium thioglycolate]    97 ×10^4
